Hey, just so you know, these numbers are from PubChem BioAssay (NCI).

- System: RXF 393 renal
- ASSAY_SUMMARY: NCI tumour cell line growth inhibition, 48 h
MEASURED_PARAMETER: TGI

Solved cases below.
{"COMPOUND": "COC(=O)[C@@H]1CCCN1C(=O)[C@H]1CCCN1C(=O)[C@@H](Cc1c[nH]c2ccccc12)NC(=S)Nc1cc(C(F)(F)F)cc(C(F)(F)F)c1", "OBSERVED_VALUE": "7.08 µM"}
{"COMPOUND": "O=C1CC/C(=C\\COc2ccc3ccc(=O)oc3c2)O1", "OBSERVED_VALUE": "31.9 µM"}
{"COMPOUND": "Clc1cc(Cl)cc(Nc2nc3ccccc3nc2-c2cccs2)c1", "OBSERVED_VALUE": "39.9 µM"}

Next:
Supply reported TGI belonging to this compound: CCCCCCCCCCCCCCCCn1cc[n+](Cc2ccccc2)c1C
0.341 µM
